assay: HL-60 cell viability by propidium iodide uptake (flow cytometry); details: human, hl-60 cells
MEASUREMENT NAME: viability at 0.4 µM

Form field viability at 0.4 µM, entry CC[C@H](C)C(=O)O[C@H]1CCC=C2C=C[C@H](C)[C@H](CC[C@@H]3C[C@@H](O)CC(=O)O3)[C@H]21 [compactin] : 100%

* * *

assay: HL-60 cell viability by propidium iodide uptake (flow cytometry); conditions: human, hl-60 cells
MEASUREMENT NAME: viability at 10 µM (%)
Give bare numbers, in %.

Form field viability at 10 µM, entry `CC[C@H](C)C(=O)O[C@H]1CCC=C2C=C[C@H](C)[C@H](CC[C@@H]3C[C@@H](O)CC(=O)O3)[C@H]21` : 96
